System: SNB-19
assay.summary: NCI tumour cell line growth inhibition, 48 h
Active and inactive are the calls of the source. Rule as the data show it: active = GI50 up to about 1.1 µM and inactive = higher.
measured.endpoint: GI50

N#CC1(C=O)c2ccccc2C=CN1C(=O)c1ccccc1 (stereo not drawn)
58.3 µM (inactive)
CC(C)C1=CC23CCC4C(C)(C(=O)O)CCCC4(C)C2CC1C1C(=O)N(c2ccc(C(=O)O)cc2)C(=O)C13 (stereo not drawn)
> 100 µM (inactive)
CC(C)NC(=O)OCCN=c1c2ccccc2ccc2ccccc12
24.4 µM (inactive)
O=C(/C=C/c1ccc(OCC(=O)N2CCN(c3ccccc3)CC2)cc1)c1ccc(Cl)cc1
18.6 µM (inactive)
O=C(/N=C(\Nc1ccccc1)SCCS/C(=N/C(=O)c1cccs1)Nc1ccccc1)c1cccs1
> 100 µM (inactive)

Please state GI50 for every compound in the list that follows.
1. c1ccc2sc(SCSc3nc4ccccc4s3)nc2c1
2. COc1cc([C@@H]2c3cc4c(cc3[C@@H](Nc3ccccc3C(=O)c3ccccc3)[C@H]3COC(=O)[C@H]23)OCO4)cc(OC)c1OC
3. CCN(CC)c1ccc2cc(-c3nnc(-c4ccccc4)[nH]3)c(=O)oc2c1
4. COC(=O)c1c(OC(C)=O)ccc2c1c1c(n2C)C(=O)c2ccccc2C1=O
5. Cc1cccc(/C=N/NC(=S)Nc2ccccc2)n1
6. Nc1ncc(Cc2ccc3c(c2)OCO3)c(N)n1

Response:
> 100 µM (inactive)
1.37 µM (inactive)
12.2 µM (inactive)
33.7 µM (inactive)
11.9 µM (inactive)
> 100 µM (inactive)

Please state GI50 for every compound in the list that follows.
1. N#CC(c1ccccc1)N(CCOCCOCCN(C(=O)c1ccccc1)C(C#N)c1ccccc1)C(=O)c1ccccc1 (stereo not drawn)
2. CCC[C@H]1C(=O)N=C(N)N1C(=O)OCc1ccccc1

Response:
1. > 100 µM (inactive)
2. > 100 µM (inactive)

====

System: HOP-62
assay.summary: NCI tumour cell line growth inhibition, 48 h
Calls of active or inactive are those of the source. Cut-off read from the data, not from the text of the source: active = GI50 up to about 1.1 µM and inactive = higher.
measured.endpoint: GI50

C=CCOC1OC(CS(=O)(=O)O)C(OC(C)=O)C(OC(C)=O)C1OC(C)=O (configuration not stated)
> 100 µM (inactive)
CC(=O)c1sc2c(c1OC(=O)c1ccc(Cl)cc1)c(=O)n(-c1ccccc1)c(=S)n2-c1ccccc1
3.85 µM (inactive)
Cc1ccc(S(=O)(=O)N2CCc3cc(O)c([N+](=O)[O-])cc32)cc1
> 100 µM (inactive)
CS/C(=N\c1ccccc1Cl)NC(=O)c1ccc(Br)cc1
21.3 µM (inactive)
COc1ccc2c(c1)OCCc1cn[nH]c1-2
56.6 µM (inactive)

Please state GI50 for every compound in the list that follows.
1. c1ccc(CSCCC(SCc2ccccc2)SCc2ccccc2)cc1
2. CCOc1cccc2sc(N)nc12

Response:
["> 10 µM (inactive)", "> 100 µM (inactive)"]

====

Please provide measured GI50 for the entries that follow.
Test system: TK-10
assay.summary: NCI tumour cell line growth inhibition, 48 h
The source made the active and inactive calls. No stated cut-off is given here; in the data, active = GI50 up to about 1.1 µM and inactive = higher.

Examples with answers:
O=C(O)/C(O)=C\C(=O)c1ccc(Br)cc1
> 100 µM (inactive)
Nc1nc(Cl)cc(NCC2(CO)CCC(CCc3ccccc3)C2)n1 (stereo not drawn)
18 µM (inactive)

# evaluate next
Prompt: Need GI50, item CC(=O)c1sc2c(c1OC(=O)c1ccc(Cl)cc1)c(=O)n(-c1ccccc1)c(=S)n2-c1ccccc1
Response: 22.4 µM (inactive)

====

Tested on: A498
assay.summary: NCI tumour cell line growth inhibition, 48 h
Calls of active or inactive are those of the source. No stated cut-off is given here; in the data, active = GI50 up to about 1.1 µM and inactive = higher.
measured.endpoint: GI50

COC(=O)C(CC(C)C)NC(=O)NC12CC3CC(CC(F)(C3)C1)C2 (stereo not given)
> 100 µM (inactive)
Cn1c(C(C#N)c2cc(Cl)ncn2)nc2ccccc21 (stereo not given)
> 100 µM (inactive)
Oc1cccc2ccc(SSc3ccc4cccc(O)c4n3)nc12
19.2 µM (inactive)
COc1cc2c(cc1OC)[C@@H]([C@H](O)c1ccccc1)NCC2
> 100 µM (inactive)

# evaluate next
Prompt: Need GI50, item O=C(N/N=C/c1ccc([N+](=O)[O-])cc1)Nc1ccc(C(=O)O)cc1
Response: 20.2 µM (inactive)

====

System: SF-539
assay.summary: NCI tumour cell line growth inhibition, 48 h
Activity calls are given as the source filed them. Cut-off read from the data, not from the text of the source: active = GI50 up to about 1.1 µM and inactive = higher.
Lab note: assign the record to one of active, inactive

Illustrative cases are given below, each with its answer.
COc1cc2c(cc1OC)C1=CCC(c3ccccc3)[N+]1(C)CC2 (stereo unspecified)
inactive
COc1ccc(C2OC(c3ccncc3)=NN2C)cc1F (stereo unspecified)
inactive
CCN(CC)CC/N=C\c1c(O)c(O)c(C(C)C)c2cc(C)c(-c3c(C)cc4c(C(C)C)c(O)c(O)c(/C=N/CCN(CC)CC)c4c3O)c(O)c12
inactive
Nc1ncc(Cc2ccc3c(c2)OCO3)c(N)n1
inactive
Cc1ccc(C2SCc3nc4ccccc4n32)cc1 (stereo unspecified)
inactive

Prompt: For O=C(/C=C/c1ccc(OCC(=O)N2CCN(c3ccccc3)CC2)cc1)c1ccc(Cl)cc1 , which call appears in the assay record?
Response: inactive

Prompt: For O=C(N/N=C/c1ccc([N+](=O)[O-])cc1)Nc1ccc(C(=O)O)cc1 , which call appears in the assay record?
Response: inactive

Prompt: For CC(C)=CCc1c(O)cc(O)c2c1OC(c1ccc(O)cc1)C(O)C2=O (stereo unspecified) , which call appears in the assay record?
Response: inactive

Prompt: For Cc1ccc(Sc2ccccc2[N+](=O)[O-])cc1 , which call appears in the assay record?
Response: inactive

Prompt: For COc1ccc(-c2cc(-c3ccc(Nc4ccnc5cc(Cl)ccc45)cc3)nc(N)c2C#N)cc1 , which call appears in the assay record?
Response: inactive

Prompt: For Cc1ccc(NC(=O)NC23CC4CC(CC(F)(C4)C2)C3)cc1 , which call appears in the assay record?
Response: inactive

Prompt: For CCOC(=O)/C(C#N)=C1/C(O)=C(C(=O)OC)C(C(=O)OC)=C1C(=O)OC.c1ccncc1 , which call appears in the assay record?
Response: inactive

====

Test system: 786-0
assay.summary: NCI tumour cell line growth inhibition, 48 h
Active and inactive are the calls of the source. Cut-off read from the data, not from the text of the source: active = GI50 up to about 1.1 µM and inactive = higher.
measured.endpoint: GI50

O=c1[nH]c(=O)n(C2OC(CO)C(O)C2O)c2c1CCCC2 (stereo not drawn)
> 100 µM (inactive)
O=C1c2ccccc2C(=O)N1Cc1ccccc1-c1c2nc(c(-c3ccccc3CN3C(=O)c4ccccc4C3=O)c3ccc([nH]3)c(-c3ccccc3CN3C(=O)c4ccccc4C3=O)c3nc(c(-c4ccccc4CN4C(=O)c5ccccc5C4=O)c4ccc1[nH]4)C=C3)C=C2
> 100 µM (inactive)

# evaluate next
Prompt: Need GI50, item CN(CCN)[C@H](CSSC[C@@H](c1ccccc1O)N(C)CCN)c1ccccc1O
Response: 7.57 µM (inactive)

====

Test system: NCI-H460
assay.summary: NCI tumour cell line growth inhibition, 48 h
Active and inactive are the calls of the source. Cut-off read from the data, not from the text of the source: active = GI50 up to about 1.1 µM and inactive = higher.
measured.endpoint: GI50

Examples with answers:
CC1=CC(C)C(C)N(CCNS(=O)(=O)c2ccc(C)cc2)c2ccccc21 (stereo not given)
12.8 µM (inactive)
CCOc1cccc2sc(N)nc12
> 100 µM (inactive)

Please state GI50 for every compound in the list that follows.
1. O=C(CSc1nnc(Cc2ccccc2)o1)Nc1cccc([N+](=O)[O-])c1
2. Nc1nc(N)nc(CCCCc2nc(N)nc(N)n2)n1
3. O=C(/C=C/c1ccc(O)c(O)c1)NCCc1ccc(-c2ccccc2)cc1

Response:
1. > 100 µM (inactive)
2. > 100 µM (inactive)
3. 48.9 µM (inactive)

====

Please provide measured GI50 for the entries that follow.
Tested on: CCRF-CEM
assay.summary: NCI tumour cell line growth inhibition, 48 h
Active and inactive are the calls of the source. Rule as the data show it: active = GI50 up to about 1.1 µM and inactive = higher.

CN(NC(=O)c1ccco1)C1=NCCCCN1
> 100 µM (inactive)
CC(=O)O[C@H]1CC[C@@]2(C)C(=CC[C@H]3[C@@H]4C[C@H](N5CCCC5)[C@H](OC(C)=O)[C@@]4(C)CC[C@@H]32)C1
> 67.8 µM (inactive)
CCOc1ccc(NCC(=O)N2CC(=O)Nc3ccccc32)cc1
> 100 µM (inactive)
CCc1cccc(C)c1NC(=O)C1=C(C)NC(C)=C(C(=O)Nc2c(C)cccc2CC)C1c1ccc([N+](=O)[O-])cc1
27.4 µM (inactive)

# evaluate next
Prompt: Need GI50, item CC(=O)OC1[C@H](n2ccnc2)C[C@H]2[C@@H]3CC=C4CC(N5CCCC5)CC[C@]4(C)[C@H]3CC[C@]12C (stereo not given in full)
Response: 25.6 µM (inactive)

====

Please provide measured GI50 for the entries that follow.
Test system: T47D
assay.summary: NCI tumour cell line growth inhibition, 48 h
Activity calls are given as the source filed them. No stated cut-off is given here; in the data, active = GI50 up to about 1.1 µM and inactive = higher.

Examples with answers:
O=c1oc2cc(O)ccc2cc1-c1nc2ccccc2o1
1.07 µM (active)
COC(=O)C1Cc2cccc(C)c2C1 (stereo not drawn)
> 100 µM (inactive)
COC(=O)c1ccc(/C=C2\Cc3ccccc3C2=O)cc1
> 100 µM (inactive)
C=CC(O)(CBr)CCC(Br)C(=C)C (stereo not drawn)
> 10 µM (inactive)
Nn1c(SCC(=O)NCc2ccccc2)nc2ccccc2c1=O
> 100 µM (inactive)

Please state GI50 for every compound in the list that follows.
1. O=C(O)CN1C=C(C(=O)c2cc3ccccc3n2S(=O)(=O)c2ccccc2)CCC1
2. S=C1Cc2c(-c3ccccc3)cc(-c3ccc(Cl)cc3)nc2-c2ccccc2N1

Response:
28.6 µM (inactive)
4.32 µM (inactive)

Please state GI50 for every compound in the list that follows.
1. Cc1cc(C)c2c(n1)S(=O)(=O)N(CCCN1CCN(c3cccc(Cl)c3)CC1)C(C(=O)c1ccccc1)=C2O
2. CCCC(=O)OCC1OC(n2cc(F)c(=O)[nH]c2=O)CC1O (stereo not drawn)
3. CN(C)CC(C)(C)CN1c2ccccc2Sc2ccccc21
4. O=P(O)(O)c1ccc(-c2ccc(I)cc2)cc1
5. Nc1ncc(Cc2ccc3c(c2)OCO3)c(N)n1

Response:
1. 38.8 µM (inactive)
2. 6.44 µM (inactive)
3. 14.2 µM (inactive)
4. > 100 µM (inactive)
5. 91.4 µM (inactive)
